Value source: ChEMBL document CHEMBL2429780

System: Staphylococcus aureus
PROTOCOL_DETAILS: Antibacterial activity against Staphylococcus aureus MTCC 96 assessed as growth inhibition after 24 hrs by broth dilution assay
Type: functional
ASSAY_CONTEXT: MTCC 96, 24 h
RECORDED_ENDPOINT: MIC (µg/mL)

These solved cases illustrate the format of a correct answer.
COMPOUND	MIC (µg/mL)
Cc1cccc(-c2cc(-c3nc4ccccc4[nH]3)nc(N3C(=O)C(Cl)C3c3ccccc3)c2C#N)c1 (centres undefined)	250
N#Cc1c(-c2cccc([N+](=O)[O-])c2)cc(-c2nc3ccccc3[nH]2)nc1N1C(=O)C(Cl)C1c1ccccc1 (centres undefined)	25
N#Cc1c(-c2ccc(Cl)cc2O)cc(-c2nc3ccccc3[nH]2)nc1N1C(=O)C(Cl)C1c1ccccc1 (centres undefined)	100
COc1ccc(-c2cc(-c3nc4ccccc4[nH]3)nc(N3C(=O)C(Cl)C3c3ccccc3)c2C#N)cc1 (centres undefined)	500
N#Cc1c(-c2ccc(Cl)cc2)cc(-c2nc3ccccc3[nH]2)nc1N1C(=O)C(Cl)C1c1ccccc1 (centres undefined)	12.5
COc1cccc(-c2cc(-c3nc4ccccc4[nH]3)nc(N3C(=O)C(Cl)C3c3ccccc3)c2C#N)c1 (centres undefined)	500
N#Cc1c(-c2ccccc2Cl)cc(-c2nc3ccccc3[nH]2)nc1N1C(=O)C(Cl)C1c1ccccc1 (centres undefined)	100
O=C(N[C@H](CO)[C@H](O)c1ccc([N+](=O)[O-])cc1)C(Cl)Cl	50

[a] N#Cc1c(-c2cccc(O)c2)cc(-c2nc3ccccc3[nH]2)nc1N1C(=O)C(Cl)C1c1ccccc1 (centres undefined)
[b] Cc1ccc(-c2cc(-c3nc4ccccc4[nH]3)nc(N3C(=O)C(Cl)C3c3ccccc3)c2C#N)cc1 (centres undefined)
Sorting ascending by MIC, which comes first: a or b ? Pick one; state its label.
b
(b: 250 µg/mL, a: 500 µg/mL)

###

Test system: Staphylococcus aureus
PROTOCOL_DETAILS: Antibacterial activity against Staphylococcus aureus MTCC 96 assessed as growth inhibition after 24 hrs by broth dilution assay
Assay type: functional
ASSAY_CONTEXT: MTCC 96, 24 h
Consider the following molecules and their measured MIC readings.

Answered cases to consult:
MOLECULE	MIC
N#Cc1c(-c2cccc(Cl)c2)cc(-c2nc3ccccc3[nH]2)nc1N	≥ 1000 µg/mL
N#Cc1c(-c2ccc(Cl)cc2)cc(-c2nc3ccccc3[nH]2)nc1N	≥ 1000 µg/mL
N#Cc1c(-c2ccc([N+](=O)[O-])cc2)cc(-c2nc3ccccc3[nH]2)nc1N	≥ 1000 µg/mL

Consider now this further molecule.
Query (molecule): N#Cc1c(-c2ccccc2O)cc(-c2nc3ccccc3[nH]2)nc1N1C(=O)C(Cl)C1c1ccccc1 (centres undefined) ; field requested: MIC
500 µg/mL
